Reference source for all entries: PubChem BioAssay (NCI)

Each entry below carries its recorded growth.
Tested on: HS 578T breast
experiment notes: NCI-60 one-dose screen, 48 h (100 = growth as untreated, 0 = no growth, -100 = all killed)
cond: 10 µM unless noted
The panel holds about 83,000 compounds, 20% with a hit somewhere; the sample as a whole holds those more often.
Note: unit % is implicit; provide only the numeric part.

[
  {
    "compound": "COC(CC(F)F)c1cn(S(=O)(=O)c2ccc(C)cc2)c2ccccc12 (stereo not given)",
    "growth [%]": 32.5
  },
  {
    "compound": "Nc1[nH]n2cc(-c3ccccc3)nc2c1N=Nc1ccc(S(N)(=O)=O)cc1",
    "growth [%]": 5.14
  },
  {
    "compound": "C=C1C(=O)O[C@H]2[C@H]1CC/C(COC(=O)NCc1ccc(Cn3c(=O)sn(CCCCC)c3=O)cc1)=C\\CC[C@@]1(C)O[C@@H]21",
    "growth [%]": 71
  },
  {
    "compound": "CCCCNC(=O)Oc1ccc(/C(=C(/C)Cc2ccc(OC)cc2)c2ccc(OCCN(CC)CC)cc2)cc1",
    "growth [%]": 76.9
  },
  {
    "compound": "Cc1[nH]c(=O)[nH]c(=O)c1Br",
    "growth [%]": 104
  }
]

Now consider the entry below.
Please report growth for the following compound: O=C1/C(=C/c2ccccc2O)CC/C1=C\c1ccccc1O
70.7

---

System: HT29 colon
experiment notes: NCI-60 one-dose screen, 48 h (100 = growth as untreated, 0 = no growth, -100 = all killed)
cond: 10 µM unless noted
About 83,000 compounds went through this panel and 20% of them were active in at least one assay; those are over-represented in the sample as a whole. Activity calls are given as the source filed them. Rule for the calls: active = growth percent below 10; inactive = the rest.
test readout: growth

Look over these answered cases.
[
  {
    "compound": "COC1=CC(c2ccc[nH]2)=N/C1=C\\c1[nH]c(C)c(CC(=O)OCc2ccccc2)c1CCC(=O)OCc1ccccc1",
    "growth": "0.828% (active)"
  },
  {
    "compound": "CC(=O)Oc1ccc(N2C(=O)C(Cl)=C(Nc3cccc(C(F)(F)F)c3)C2=O)cc1",
    "growth": "104% (inactive)"
  },
  {
    "compound": "COc1ccc(Nc2ncc(Br)c(NCCCNC(=O)c3cccs3)n2)cc1",
    "growth": "51.6% (inactive)"
  },
  {
    "compound": "Cc1[nH]c(C(=O)Nc2ccccc2OC2CCNCC2)c(Cl)c1Cl",
    "growth": "-7.94% (active)"
  },
  {
    "compound": "N#Cc1nc(-c2ccccc2)oc1S(=O)(=O)N1CCN(c2ccccc2)CC1",
    "growth": "86.5% (inactive)"
  }
]

Hello, please tell me recorded growth for this one: C=CCN=c1sc2c(n1NC(=O)c1cc3ccc1CCc1ccc(cc1)CC3)C(=O)c1ccccc1C2=O
26.1% (inactive)

Report growth, nothing else, for this compound: C=C1C(=O)O[C@H]2[C@H]1CC/C(COC(=O)c1cc3ccccc3s1)=C\CC[C@@]1(C)O[C@@H]21
-75.4% (active)

Given the compound COC(=O)Nc1nc2ccc(S(=O)c3ccccc3)cc2[nH]1 (stereo not given) , write its reported growth.
16.9% (inactive)

Fill in reported growth for this entry: Nc1nc2ccccc2c2c(=O)c3cccc(Cl)c3sc12
92.7% (inactive)

Supply measured growth of Cn1ccnc1C(=O)/C=C/c1ccc(CC(=O)Nc2cc(C(F)(F)F)cc(C(F)(F)F)c2)cc1 in your reply.
66.4% (inactive)
